Reference source: ChEMBL document CHEMBL3045663

- System: Nephotettix cincticeps
- TEST METHOD NOTES: Insecticidal activity against Nephotettix cincticeps (green rice leafhopper) in compound treated rice seedlings assessed as mortality at 500 ppm
- Format: functional
Exercise: state measured mortality at 500 ppm for each of the molecules provided.
The answer is to be given in %; state only the numeric part.

Enquiry: Given the entry CCOc1cc(Cl)ccc1C1COC(c2c(F)cccc2F)=N1 (centres undefined) , report its measured mortality at 500 ppm.
Return: 100

Enquiry: Please do the same for O=[N+]([O-])c1ccccc1C1=NC(c2ccccc2)CO1 (centres undefined) as well.
Return: 0

Enquiry: Please do the same for CCOc1ccccc1C1COC(c2c(F)cccc2F)=N1 (centres undefined) as well.
Return: 100

Enquiry: Please do the same for CCCCCCCCCCc1ccc(C2COC(c3c(F)cccc3F)=N2)c(Cl)c1 (centres undefined) as well.
Return: 0

Enquiry: Please do the same for CCOc1cc(F)ccc1C1COC(c2c(F)cccc2F)=N1 (centres undefined) as well.
Return: 100

Enquiry: Please do the same for CCc1ccc(C2COC(c3c(F)cccc3F)=N2)c(F)c1 (centres undefined) as well.
Return: 0

Enquiry: Please do the same for CCCCOc1cc(C(C)(C)C)ccc1C1COC(c2c(F)cccc2F)=N1 (centres undefined) as well.
Return: 0

Enquiry: Please do the same for COc1ccc(C2COC(c3c(F)cccc3F)=N2)cc1 (centres undefined) as well.
Return: 10

Enquiry: Please do the same for Fc1cccc(F)c1C1=NCC(c2ccccc2)S1 (centres undefined) as well.
Return: 0

Enquiry: Please do the same for Clc1ccc(C2=NC(c3ccccc3)CO2)cc1 (centres undefined) as well.
Return: 0

Enquiry: Please do the same for Fc1cccc(F)c1-c1nc(-c2ccccc2)co1 as well.
Return: 10

Enquiry: Please do the same for COc1cccc(C2COC(c3c(F)cccc3F)=N2)c1 (centres undefined) as well.
Return: 0

Enquiry: Please do the same for CCCCCCc1ccc(C2COC(c3c(F)cccc3F)=N2)c(Cl)c1 (centres undefined) as well.
Return: 100

Enquiry: Please do the same for CCCCCCCCCCOc1ccc(C2COC(c3c(F)cccc3F)=N2)cc1 (centres undefined) as well.
Return: 10

Enquiry: Please do the same for Cc1ccc(C2COC(c3c(F)cccc3F)=N2)cc1C (centres undefined) as well.
Return: 85

Enquiry: Please do the same for CCCCCCCCCCCCCCCc1ccc(C2COC(c3c(F)cccc3F)=N2)cc1 (centres undefined) as well.
Return: 0

Enquiry: Please do the same for CCCCCCc1ccc(C2COC(c3c(F)cccc3F)=N2)c(F)c1 (centres undefined) as well.
Return: 60

Enquiry: Please do the same for CCCCCCCCCc1ccc(C2COC(c3c(F)cccc3F)=N2)c(OC)c1 (centres undefined) as well.
Return: 10

Enquiry: Please do the same for Clc1ccc(Cl)c(C2=NC(c3ccccc3)CO2)c1 (centres undefined) as well.
Return: 0

Enquiry: Please do the same for CCc1ccc(C2COC(c3c(F)cccc3F)=N2)c(Cl)c1 (centres undefined) as well.
Return: 0

Enquiry: Please do the same for CCCCCCCCOc1ccc(C2COC(c3c(F)cccc3F)=N2)cc1 (centres undefined) as well.
Return: 0

Enquiry: Please do the same for CCOc1cc(Br)ccc1C1COC(c2c(F)cccc2F)=N1 (centres undefined) as well.
Return: 100

Enquiry: Please do the same for C[S+]([O-])c1ccc(C2COC(c3c(F)cccc3F)=N2)cc1 (centres undefined) as well.
Return: 0

Enquiry: Please do the same for CSc1ccccc1C1=NC(c2ccccc2)CO1 (centres undefined) as well.
Return: 0
